These entries and their values trace back to the supplement of paper PMC5998384.

Reported solubility change mitosis (log2) values are given for each entry in this list.
# Test system: HeLa Kyoto;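 note: synchronized HeLa Kyoto cells (double thymidine block for G1/S, nocodazole release for mitosis), protein amounts in NP-40 versus SDS lysates quantified by mass spectrometry, three biological replicates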
# protocol-details: solubility change mitosis vs G1/S (difference of NP-40 vs SDS log2 ratios) (log2 ratio difference); higher = more soluble in mitosis
Output spec: single numeric token, no unit.

MSLTSSSSVRVEWIAAVTIAAGTAAIGYLAYKRFYVKDHRNKAMINLHIQKDNPKIVHAFDMEDLGDKAVYCRCWRSKKFPFCDGAHTKHNEETGDNVGPLIIKKKET [CISD1]: 0.0262
MSALLRLLRTGAPAAACLRLGTSAGTGSRRAMALYHTEERGQPCSQNYRLFFKNVTGHYISPFHDIPLKVNSKEENGIPMKKARNDEYENLFNMIVEIPRWTNAKMEIATKEPMNPIKQYVKDGKLRYVANIFPYKGYIWNYGTLPQTWEDPHEKDKSTNCFGDNDPIDVCEIGSKILSCGEVIHVKILGILALIDEGETDWKLIAINANDPEASKFHDIDDVKKFKPGYLEATLNWFRLYKVPDGKPENQFAFNGEFKNKAFALEVIKSTHQCWKALLMKKCNGGAINCTNVQISDSPFRCTQEEARSLVESVSSSPNKESNEEEQVWHFLGK [PPA2]: 0.0395
MADKPDMGEIASFDKAKLKKTETQEKNTLPTKETIEQEKRSEIS [TMSB10]: 0.336

Let us move to another entry and its solubility change mitosis (log2).
sequence MSKQQPTQFINPETPGYVGFANLPNQVHRKSVKKGFEFTLMVVGESGLGKSTLINSLFLTDLYPERVIPGAAEKIERTVQIEASTVEIEERGVKLRLTVVDTPGYGDAINCRDCFKTIISYIDEQFERYLHDESGLNRRHIIDNRVHCCFYFISPFGHGLKPLDVAFMKAIHNKVNIVPVIAKADTLTLKERERLKKRILDEIEEHNIKIYHLPDAESDEDEDFKEQTRLLKASIPFSVVGSNQLIEAKGKKVRGRLYPWGVVEVENPEHNDFLKLRTMLITHMQDLQEVTQDLHYENFRSERLKRGGRKVENEDMNKDQILLEKEAELRRMQEMIARMQAQMQMQMQGGDGDGGALGHHV [SEPT2] , solubility change mitosis (log2) observed: -0.0125
